System: U2OS
Assay: Multiplex assay against U2OS
Assay type: toxicity, cell-based
Conditions: human, 12 h, 10 µM, compound concentration 10 uM, replicate 1
Label met when Population Pyknosed Nuclei (%) is at or above 10%; anything below gets not met.

Use the examples below as a reference point.
Ask: # check: Population Pyknosed Nuclei (%) of `CN(C)c1ccnc2sc3c(=O)n(N4CCCCCC4)cnc3c12` is greater than or equal to 10%
Result: met

Ask: Confirm if Population Pyknosed Nuclei (%) reported for the molecule `Oc1c(CN2CCN(c3ccccn3)CC2)cc(Cl)c2cccnc12` is 10% or above.
Result: met

Ask: Decide: Population Pyknosed Nuclei (%) of `CN1CCN(c2nc3cc(C(F)(F)F)ccc3n3cccc23)CC1.O=C(O)/C=C\C(=O)O.O=C(O)/C=C\C(=O)O` >= 10%?
Result: met

Ask: Determine whether measured Population Pyknosed Nuclei (%) meets or exceeds 10% for `CC(C)(C)c1ccc(S(=O)(=O)Nc2ccc(Cl)cc2C(=O)c2cc[n+]([O-])cc2)cc1`
Result: not met

Ask: Identify whether the reported Population Pyknosed Nuclei (%) of the following molecule is 10% or greater: Cc1ccc(C(C)(O)c2nc3ccccc3s2)c(C)c1 (configuration not stated)
Result: not met

New cases:
Ask: Test whether the molecule `N#Cc1c(N)nc(SCc2csc(-c3ccc(Cl)cc3)n2)c(C#N)c1-c1ccc(OCCO)cc1` records Population Pyknosed Nuclei (%) of 10% or higher.
Result: met

Ask: Form field: Population Pyknosed Nuclei (%) at least 10%? Entry: CCCN1CCC[C@@H]2Cc3n[nH]cc3C[C@H]21.Cl [QUINPIROLE HYDROCHLORIDE]
Result: not met
